Test system: Puccinia coronata
TEST_DETAILS: Fungicidal activity against Puccinia coronata inoculated in oat leaves pre-treated with compound 24 hr before fungal inoculation assessed as inhibition of oat crown rust disease at 31.3 ppm measured after 9 days under greenhouse conditions relative to untreated control
Assay type: functional
OUTCOME_MEASURE: inhibition at 31.3 ppm (%)

SMILES_REPR	ENDPOINT_RESULT
CO/N=C(/C1=NOCC1)c1ccccc1COc1cc(C)ccc1C	90
CO/N=C(/c1ccon1)c1ccccc1COc1cc(C)ccc1C	97
CO/N=C(\c1cc(C)no1)c1ccccc1COc1cc(C)ccc1C	97
CNC(=O)/C(=N/OC)c1ccccc1Oc1cc(C)ccc1C	100

----------
Test system: Blumeria graminis f. sp. tritici
TEST_DETAILS: Fungicidal activity against Blumeria graminis f. sp. tritici inoculated on wheat seedlings pre-treated with compound 24 hr before fungal inoculation assessed as inhibition of wheat powdery mildew disease at 500 ppm measured after 10 days under greenhouse conditions relative to untreated control
Assay type: functional
OUTCOME_MEASURE: inhibition at 500 ppm

MOLECULE	ENDPOINT_RESULT
CO/N=C(\c1ccno1)c1ccccc1COc1cc(C)ccc1C	90%
CO/N=C(/C1=NOC(C)(C)C1)c1ccccc1COc1cc(C)ccc1C	< 90%
CO/N=C(/c1cc(OC)on1)c1ccccc1COc1cc(C)ccc1C	< 90%
CCc1cc(/C(=N/OC)c2ccccc2COc2cc(C)ccc2C)on1	< 90%
CO/N=C(/C1=NOC(C)C1)c1ccccc1COc1cc(C)ccc1C (centres undefined)	90%
CO/N=C(\c1ccccc1COc1cc(C)ccc1C)c1c(C)noc1C	< 90%
CO/N=C(/c1cc(C)on1)c1ccccc1COc1cc(C)ccc1C	< 90%
CO/N=C(\Cc1cc(C)no1)c1ccccc1COc1cc(C)ccc1C	< 90%
CO/N=C(\c1ccccc1COc1cc(C)ccc1C)C1CC(C)=NO1 (centres undefined)	< 90%

----------
System: Botrytis cinerea
TEST_DETAILS: Fungicidal activity against Botryotinia fuckeliana inoculated on cucumber leaves treated with compound 24 hr after fungal inoculation assessed as inhibition of cucumber gray mold disease at 7.8 ppm measured after 3 days under greenhouse conditions relative to untreated control
Format: functional

SMILES_REPR	DISPLAY_UNIT	inhibition at 7.8 ppm
CO/N=C(/c1ccon1)c1ccccc1COc1cc(C)ccc1C	%	30
CO/N=C(\c1cc(C)no1)c1ccccc1COc1cc(C)ccc1C	%	0
CO/N=C(/C1=NOCC1)c1ccccc1COc1cc(C)ccc1C	%	0
CNC(=O)/C(=N/OC)c1ccccc1Oc1cc(C)ccc1C	%	40

----------
The reader will find reported inhibition at 7.8 ppm values listed item by item below.
Tested on: Podosphaera fuliginea
TEST_DETAILS: Fungicidal activity against Podosphaera fuliginea inoculated on cucumber plants pre-treated with compound 24 hr before fungal inoculation assessed as inhibition of cucumber powdery mildew disease at 7.8 ppm measured after 10 days under greenhouse conditions relative to untreated control
Format: functional
OUTCOME_MEASURE: inhibition at 7.8 ppm (%)

SMILES_REPR	OUTCOME_MEASURE	ENDPOINT_RESULT
CON=C(C1=NOCC1)c1ccccc1COc1cc(C)ccc1C	inhibition at 7.8 ppm	90
CO/N=C(/c1ccon1)c1ccccc1COc1cc(C)ccc1C	inhibition at 7.8 ppm	100
CON=C(c1ccon1)c1ccccc1COc1cc(C)ccc1C	inhibition at 7.8 ppm	90
CON=C(c1cc(C)on1)c1ccccc1COc1cc(C)ccc1C	inhibition at 7.8 ppm	90
CO/N=C(/c1cc(C)no1)c1ccccc1COc1cc(C)ccc1C	inhibition at 7.8 ppm	90
CO/N=C(/C1=NOCC1)c1ccccc1COc1cc(C)ccc1C	inhibition at 7.8 ppm	90
CNC(=O)/C(=N/OC)c1ccccc1Oc1cc(C)ccc1C	inhibition at 7.8 ppm	100
CO/N=C(\c1cc(C)no1)c1ccccc1COc1cc(C)ccc1C	inhibition at 7.8 ppm	100
